Every entry's value here was drawn from patent US9884828B2.

Molecular target: recombinant GST-LRRK2 (wild-type) (Homo sapiens (Human))
Sequence (Q5S007 whole entry): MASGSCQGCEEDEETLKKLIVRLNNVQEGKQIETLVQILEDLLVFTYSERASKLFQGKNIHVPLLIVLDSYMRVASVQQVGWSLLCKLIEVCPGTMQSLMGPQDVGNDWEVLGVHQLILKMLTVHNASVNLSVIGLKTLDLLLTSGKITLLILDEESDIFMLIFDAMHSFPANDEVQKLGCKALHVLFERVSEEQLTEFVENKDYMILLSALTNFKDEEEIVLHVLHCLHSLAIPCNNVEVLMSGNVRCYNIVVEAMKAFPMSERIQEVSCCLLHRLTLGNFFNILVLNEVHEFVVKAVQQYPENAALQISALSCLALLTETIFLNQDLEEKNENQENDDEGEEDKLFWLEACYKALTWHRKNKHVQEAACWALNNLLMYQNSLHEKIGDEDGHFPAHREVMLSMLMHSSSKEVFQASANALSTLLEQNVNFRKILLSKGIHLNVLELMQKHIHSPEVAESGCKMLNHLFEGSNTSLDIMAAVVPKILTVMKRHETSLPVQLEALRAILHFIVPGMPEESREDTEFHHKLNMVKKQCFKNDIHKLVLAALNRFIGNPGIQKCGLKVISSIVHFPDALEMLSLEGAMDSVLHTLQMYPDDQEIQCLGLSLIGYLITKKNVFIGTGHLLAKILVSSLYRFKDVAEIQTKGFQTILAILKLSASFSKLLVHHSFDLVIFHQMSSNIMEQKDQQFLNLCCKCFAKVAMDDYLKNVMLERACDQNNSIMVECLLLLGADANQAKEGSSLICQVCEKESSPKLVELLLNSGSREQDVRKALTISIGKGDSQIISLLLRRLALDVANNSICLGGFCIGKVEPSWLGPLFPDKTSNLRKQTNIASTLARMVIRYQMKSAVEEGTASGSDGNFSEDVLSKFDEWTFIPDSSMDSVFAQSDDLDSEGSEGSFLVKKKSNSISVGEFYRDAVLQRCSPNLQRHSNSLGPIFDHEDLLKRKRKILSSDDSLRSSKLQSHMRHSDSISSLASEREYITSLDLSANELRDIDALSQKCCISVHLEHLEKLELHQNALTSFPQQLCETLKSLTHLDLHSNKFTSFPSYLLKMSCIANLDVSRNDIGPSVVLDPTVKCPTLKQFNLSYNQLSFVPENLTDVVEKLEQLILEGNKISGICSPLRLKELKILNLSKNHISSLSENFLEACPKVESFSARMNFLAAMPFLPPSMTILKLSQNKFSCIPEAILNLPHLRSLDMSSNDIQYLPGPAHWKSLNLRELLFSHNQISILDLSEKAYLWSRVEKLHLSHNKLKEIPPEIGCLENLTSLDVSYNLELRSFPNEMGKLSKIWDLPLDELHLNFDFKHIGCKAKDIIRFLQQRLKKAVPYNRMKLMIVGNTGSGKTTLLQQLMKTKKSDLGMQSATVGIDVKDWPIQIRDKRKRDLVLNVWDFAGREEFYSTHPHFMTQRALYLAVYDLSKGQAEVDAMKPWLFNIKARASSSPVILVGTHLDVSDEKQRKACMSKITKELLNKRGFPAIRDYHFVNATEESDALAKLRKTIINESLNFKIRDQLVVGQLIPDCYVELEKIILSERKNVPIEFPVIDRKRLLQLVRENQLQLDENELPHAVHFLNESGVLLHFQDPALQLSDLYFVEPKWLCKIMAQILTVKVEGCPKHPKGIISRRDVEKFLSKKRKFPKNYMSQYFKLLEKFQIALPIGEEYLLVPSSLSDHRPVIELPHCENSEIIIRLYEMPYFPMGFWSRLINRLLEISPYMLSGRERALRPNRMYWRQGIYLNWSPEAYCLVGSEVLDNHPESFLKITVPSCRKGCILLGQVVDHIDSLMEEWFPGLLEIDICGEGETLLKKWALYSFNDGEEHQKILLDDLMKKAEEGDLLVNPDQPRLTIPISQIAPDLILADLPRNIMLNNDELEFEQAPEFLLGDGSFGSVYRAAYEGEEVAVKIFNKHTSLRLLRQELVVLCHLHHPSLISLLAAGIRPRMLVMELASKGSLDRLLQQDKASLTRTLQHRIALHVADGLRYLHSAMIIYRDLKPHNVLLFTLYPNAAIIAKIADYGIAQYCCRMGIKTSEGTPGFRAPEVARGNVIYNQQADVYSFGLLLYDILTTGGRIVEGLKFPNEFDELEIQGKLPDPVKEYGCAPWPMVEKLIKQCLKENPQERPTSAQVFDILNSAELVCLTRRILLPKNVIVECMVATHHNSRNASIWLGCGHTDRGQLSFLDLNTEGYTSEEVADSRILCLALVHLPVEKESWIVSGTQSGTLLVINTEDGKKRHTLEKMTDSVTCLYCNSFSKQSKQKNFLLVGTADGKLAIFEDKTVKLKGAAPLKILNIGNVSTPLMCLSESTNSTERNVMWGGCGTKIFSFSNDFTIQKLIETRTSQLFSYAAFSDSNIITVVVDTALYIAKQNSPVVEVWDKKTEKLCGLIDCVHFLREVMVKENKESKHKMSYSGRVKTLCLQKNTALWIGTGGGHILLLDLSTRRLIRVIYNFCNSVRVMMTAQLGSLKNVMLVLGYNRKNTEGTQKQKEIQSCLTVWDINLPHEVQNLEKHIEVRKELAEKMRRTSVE
Assay: LRRK2 TR-FRET peptide assay (in vitro kinase activity), wild-type
Assay type: biochemical
Settings: 100 μM ATP, 100 nM biotin-LRRKtide substrate, 10 nM kinase, 60 minutes at room temperature

Molecule	IC50
CC(C)Nc1c(C(N)=O)nnc2cc(-c3cccc(F)c3)ccc12 [Compound 2-45]	84 nM
CC(C)Nc1c(C(N)=O)nnc2cc(-n3cccn3)ccc12 [Compound 4-80]	31 nM
COc1ccc(N2CCOCC2=O)cc1-c1ccc2c(N[C@H](C)C3CC3)c(C(N)=O)nnc2c1 [Compound 9-209]	63 nM
COc1ncccc1Nc1ccc2c(NC(C)C)c(C(N)=O)nnc2c1 [Compound 4-190]	31 nM
CN(C)c1cccc(-c2ccc3c(N)c(C(N)=O)nnc3c2)c1 [Compound 1-8]	250 nM
COc1cccc(Nc2ccc3c(NC(C)C)c(C(N)=O)nnc3c2)c1 [Compound 4-192]	240 nM
COc1cc(-c2ncccc2F)ccc1-c1ccc2c(N[C@H](C)C3CC3)c(C(N)=O)nnc2c1 [Compound 11-218]	43 nM
C[C@@H](Nc1c(C(N)=O)nnc2cc(-c3ccc4c(c3)NC(=O)C4)ccc12)C1CC1 [Compound 2-120]	1 nM
